Target: T1, human EphB1 (Homo sapiens, UniProt P54762)
T1 construct: a protein of the extracellular region of each human Eph receptor fused with the SEAP protein and the His tag; made in house; host or cells: Expi293F cells (culture supernatant)
T1 sequence (P54762 18-540 limits assumed): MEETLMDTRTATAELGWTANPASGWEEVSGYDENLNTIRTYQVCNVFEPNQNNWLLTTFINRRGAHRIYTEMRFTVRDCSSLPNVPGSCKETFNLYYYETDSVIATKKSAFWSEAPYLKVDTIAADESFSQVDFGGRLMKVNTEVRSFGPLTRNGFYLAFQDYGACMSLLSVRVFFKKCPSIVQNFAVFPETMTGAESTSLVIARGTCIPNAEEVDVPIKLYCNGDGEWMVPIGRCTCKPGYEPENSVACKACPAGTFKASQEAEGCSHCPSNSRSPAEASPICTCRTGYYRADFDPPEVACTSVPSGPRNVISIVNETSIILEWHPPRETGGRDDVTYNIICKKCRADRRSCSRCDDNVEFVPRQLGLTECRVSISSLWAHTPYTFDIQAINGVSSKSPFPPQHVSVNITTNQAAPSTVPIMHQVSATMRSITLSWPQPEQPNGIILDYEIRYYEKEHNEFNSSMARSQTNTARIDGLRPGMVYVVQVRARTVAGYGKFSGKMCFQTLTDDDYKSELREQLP
Test: Selectivity ELISA of humanized antibodies for human Eph receptor
Type: binding
Details: coated protein 1 nM
Kindly supply the reported hEphB1-SEAP-: absorbance at 450 nm, percentage with respect to hEphA4-SEAP-His as 100% values for the records listed here.
Numeric answer only, unit % assumed.

Prompt: Could you tell me which hEphB1-SEAP-: absorbance at 450 nm, percentage with respect to hEphA4-SEAP-His as 100% is on file for 84 (antibody, V domains shown, constant regions without entry; synthetic humanized antibody light chain variable region sequence; synthetic humanized antibody heavy chain variable region sequence) VL: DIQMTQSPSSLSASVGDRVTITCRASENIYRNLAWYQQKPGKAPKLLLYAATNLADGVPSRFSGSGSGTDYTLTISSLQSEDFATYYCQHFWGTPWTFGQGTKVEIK VH: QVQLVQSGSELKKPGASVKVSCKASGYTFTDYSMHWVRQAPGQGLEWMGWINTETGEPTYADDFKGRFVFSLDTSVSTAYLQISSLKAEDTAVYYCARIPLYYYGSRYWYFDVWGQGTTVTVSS ?
Response: 5.2

Prompt: Could you tell me which hEphB1-SEAP-: absorbance at 450 nm, percentage with respect to hEphA4-SEAP-His as 100% is on file for 87 (antibody, V domains shown, constant regions without entry; synthetic humanized antibody light chain variable region sequence; synthetic humanized antibody heavy chain variable region sequence) VL: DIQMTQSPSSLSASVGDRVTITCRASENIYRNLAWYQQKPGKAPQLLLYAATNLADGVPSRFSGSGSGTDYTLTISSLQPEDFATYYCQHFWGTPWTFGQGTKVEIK VH: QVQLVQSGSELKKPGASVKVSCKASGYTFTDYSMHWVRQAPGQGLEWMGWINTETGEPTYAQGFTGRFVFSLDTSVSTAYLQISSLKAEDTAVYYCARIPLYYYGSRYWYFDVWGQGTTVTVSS ?
Response: 5.3
